TEST_METHOD_NOTES: Cytotoxicity against African green monkey Vero cells after 72 hrs by MTT assay
Assay type: toxicity, cell-based, Chlorocebus sabaeus
EXPERIMENTAL_READOUT: EC50 at 72 h (µM)
Provide only the numeric value, understood in µM.

Past entries and their recorded results:
>>> numeric_readout("Cc1cccc(Nc2ccnc(Nc3ccc(N4CCN(C)CC4)c(C)c3)n2)c1")
2
>>> numeric_readout("Cc1cccc(Nc2ccnc(Nc3ccc(N4CCN(C)CC4)cc3)n2)c1")
1
>>> numeric_readout("NS(=O)(=O)c1cccc(Nc2ccnc(Nc3ccc(N4CCOCC4)cc3)n2)c1")
37

Okay, next one:
Q: What does the record list as EC50 at 72 h for Cc1cc(Nc2ncc(C#N)c(Nc3cccc(S(=O)(=O)NC(C)(C)C)c3)n2)ccc1N1CCN(C)CC1 ?
Result: 45.4

====

System: Plasmodium falciparum
TEST_METHOD_NOTES: Antimalarial activity against Plasmodium falciparum 3D7 by high throughput screening assay
Assay type: functional
Measured IC50 by item
Your answer should be a plain number; it is taken to be in nM.

Worked cases, answers included:
>>> numeric_readout("CN1CCN(c2ccc(Nc3ncc(C#N)c(Nc4ccccc4C(N)=O)n3)cc2)CC1")
40
>>> numeric_readout("Cc1cc(Nc2ncc(C#N)c(Nc3ccccc3C(N)=O)n2)ccc1N1CCN(C)CC1")
9
>>> numeric_readout("CNC(=O)c1cnc(Nc2ccc(N3CCOCC3)cc2)nc1Nc1cccc(OC(C)C)c1")
759

We next turn to a different molecule, shown below.
Q: # lookup: IC50 of CNC(=O)c1cnc(Nc2ccc(N3CCN(C)CC3)cc2)nc1Nc1cccc([N+](=O)[O-])c1
Result: 138

====

TEST_METHOD_NOTES: Cytotoxicity against human HepG2 cells at 10uM
Format: toxicity, cell-based
MEASUREMENT_PARAMETERS: hepg2, 10 µM
Listed below: Activity values for each entry.
Your answer should be a number followed by the unit of measure.

Worked cases, Activity given:
>>> result("CNC(=O)c1cnc(Nc2ccc(N3CCOCC3)cc2)nc1Nc1cccc(OC(C)C)c1")
"19%"
>>> result("CNC(=O)c1cnc(Nc2ccc(N3CCN(C)CC3)cc2)nc1Nc1cccc([N+](=O)[O-])c1")
"16%"
>>> result("Cc1cc(Nc2ncc(C#N)c(Nc3ccccc3C(N)=O)n2)ccc1N1CCN(C)CC1")
"99%"

Q: Query: Activity; subject: CN1CCN(c2ccc(Nc3ncc(C#N)c(Nc4ccccc4C(N)=O)n3)cc2)CC1
Result: 43%

====

TEST_METHOD_NOTES: Cytotoxicity against African green monkey Vero cells at 10 uM after 4 days by fluorescence assay
Type: toxicity, cell-based
MEASUREMENT_PARAMETERS: chlorocebus sabaeus, 96 h
Listed next: entries and their corresponding Activity.
Please respond with the number in % and leave the unit unwritten.

Q: Activity for CN1CCN(c2ccc(Nc3nccc(Nc4ccccc4C(N)=O)n3)cc2)CC1 ?
Result: 91

Q: Recorded Activity of Cc1cc(Nc2ncc(C#N)c(Nc3cccc(S(C)(=O)=O)c3)n2)ccc1N1CCN(C)CC1 , please.
Result: 92

Q: # input molecule: COc1cnc(Nc2ccc(N3CCN(C)CC3)c(C)c2)nc1Nc1cccc(S(N)(=O)=O)c1 ; wanted: its Activity
Result: 88

Q: I would be grateful if you could share the reported Activity for CN1CCN(c2ccc(Nc3nccc(Nc4cccc(S(N)(=O)=O)c4)n3)cc2)CC1 .
Result: 80

====

TEST_METHOD_NOTES: Cytotoxicity against African green monkey Vero cells at 10 uM after 4 days by fluorescence assay
Assay type: toxicity, cell-based
MEASUREMENT_PARAMETERS: chlorocebus sabaeus, 96 h
// boundary case: Activity equal to 40% maps to Not met; strictly smaller maps to Met

>>> cat("Cc1cc(Nc2ncc(C#N)c(Nc3cccc(S(=O)(=O)NC(C)(C)C)c3)n2)ccc1N1CCN(C)CC1")
"Met"

Q: Please state whether Activity is below 40% for CCN(CC)CCCC(C)Nc1ccnc2cc(Cl)ccc12 (stereo not drawn)
Result: Not met

Q: Decide: Activity of Cc1cc(Nc2nccc(Nc3cccc(S(N)(=O)=O)c3)n2)ccc1N1CCN(C)CC1 strictly below 40%?
Result: Not met

Q: Would you kindly verify if Activity of Cc1cccc(Nc2ccnc(Nc3cccc(C)c3)n2)c1 is strictly less than 40%?
Result: Not met

====

TEST_METHOD_NOTES: Cytotoxicity against African green monkey Vero cells at 10 uM after 4 days by fluorescence assay
Format: toxicity, cell-based
MEASUREMENT_PARAMETERS: chlorocebus sabaeus, 96 h
EXPERIMENTAL_READOUT: Activity (%)
Give the number; % is assumed, so skip it.

>>> numeric_readout("Cc1cccc(Nc2ncc(C#N)c(Nc3cccc(C)c3)n2)c1")
40

Q: Field request: Activity | item: c1cc(Nc2ccc(N3CCOCC3)cc2)nc(Nc2ccc(N3CCOCC3)cc2)n1
Result: 25

Q: Name the recorded Activity for Cc1cccc(Nc2ncc(C(N)=O)c(Nc3cccc(C)c3)n2)c1 .
Result: 96

Q: # query: Activity of entry Cc1cc(Nc2nccc(Nc3ccccc3C(N)=O)n2)ccc1N1CCN(C)CC1
Result: 92
